Below, each entry is listed alongside its reported IC50.
- Tested on: K562
- Test method notes: Cytotoxicity against human K562 cells assessed as cell viability after 72 hrs by celltiter-blue assay
- Format: functional, cell-based
- Measurement parameters: K562, 72 h
The reply should contain only the number, in nM.

C/C=C(\C)[C@H]1OC(=O)[C@@H](C)NC(=O)[C@H]([C@@H](C)CC)NC(=O)CN(C)C(=O)[C@@H](Cc2ccc(Cl)cc2)N(C)C(=O)[C@H](C)NC(=O)[C@@H](CC(C)C)OC(=O)/C(C)=C/C[C@H](OCSC)[C@@H]1C
7.1
C/C=C(\C)[C@H]1OC(=O)[C@@H](C)NC(=O)[C@H]([C@@H](C)CC)NC(=O)CN(C)C(=O)[C@@H](Cc2ccccc2)N(C)C(=O)[C@@H](C)NC(=O)[C@@H](CC(C)C)OC(=O)/C(C)=C/C[C@H](O)[C@@H]1C
584
C/C=C(\C)[C@@H](O)[C@@H](C)[C@@H]1C/C=C(\C)C(=O)O[C@H](CC(C)C)C(=O)N[C@@H](C)C(=O)N(C)[C@H](Cc2ccccc2)C(=O)N(C)CC(=O)N[C@@H]([C@@H](C)CC)C(=O)N[C@H](C)C(=O)O1
0.012
C/C=C(\C)[C@H]1OC(=O)[C@@H](C)NC(=O)[C@H]([C@@H](C)CC)NC(=O)CN(C)C(=O)[C@@H](Cc2ccccc2)N(C)C(=O)[C@H](C)NC(=O)[C@@H](CC(C)C)OC(=O)/C(C)=C/C[C@H](O)[C@@H]1C
0.0031
C/C=C(\C)[C@@H](O)[C@@H](C)[C@@H]1C/C=C(\C)C(=O)O[C@H](CC(C)C)C(=O)N[C@@H](C)C(=O)N(C)[C@H](Cc2ccc(Cl)cc2)C(=O)N(C)CC(=O)N[C@@H]([C@@H](C)CC)C(=O)N[C@H](C)C(=O)O1
0.000216

Prompt line: Which IC50 is reported for this molecule? `C/C=C(\C)[C@H]1OC(=O)[C@@H](C)NC(=O)[C@H]([C@@H](C)CC)NC(=O)CN(C)C(=O)[C@@H](Cc2ccccc2)N(C)C(=O)[C@@H](C)NC(=O)[C@@H](CC(C)C)OC(=O)/C(C)=C/C[C@H](OCSC)[C@@H]1C`
Response line: 1190

Prompt line: Which IC50 is reported for this molecule? `C/C=C(\C)[C@H]1OC(=O)[C@@H](C)NC(=O)[C@H]([C@@H](C)CC)NC(=O)CN(C)C(=O)[C@@H](Cc2ccccc2)N(C)C(=O)[C@H](C)NC(=O)[C@@H](CC(C)C)OC(=O)/C(C)=C/C[C@H](OCSC)[C@@H]1C`
Response line: 0.0063

Prompt line: Which IC50 is reported for this molecule? `C/C=C(\C)[C@H]1OC(=O)[C@@H](C)NC(=O)[C@H]([C@@H](C)CC)NC(=O)CN(C)C(=O)[C@@H](Cc2ccc(Cl)cc2)N(C)C(=O)[C@H](C)NC(=O)[C@@H](CC(C)C)OC(=O)/C(C)=C/C[C@H](O)[C@@H]1C`
Response line: 1.1e-05
